These entries and their values trace back to paper PMC8457749.

Recorded melting point values for a group of compounds are listed next.
# unit: °C | format: bare number

The following compounds have reported results that may help.
- compound: "O=C1NC(=O)C(=Cc2cn(-c3cccc(F)c3)nn2)C(=O)N1 [Compound 3c]"
  melting point / °C: 250
- compound: "COc1cccc(-n2cc(C=C3C(=O)NC(=O)NC3=O)nn2)c1 [Compound 3n]"
  melting point / °C: 250

Turning now to a further compound:
Please give the measured melting point for this compound: COc1ccccc1-n1cc(C=C2C(=O)NC(=O)NC2=O)nn1 [Compound 3m]
250

* * *

# System: MCF-7 cells
# protocolText: MTT antiproliferative assay, MCF-7
# Assay type: cell-based, human
# assayConditions: Homo sapiens, MCF7, 48 h, read-out: IC50 MCF-7
Recorded IC50 values for a group of molecules are listed next.

- molecule: "O=C1NC(=O)C(=Cc2cn(-c3cccc(F)c3)nn2)C(=O)N1 [Compound 3c]"
  targetOrTestSystem: "MCF-7 cells"
  IC50: "> 100 µM"
- molecule: "O=C1CC(=O)NC(=O)N1 [Barbituric acid]"
  targetOrTestSystem: "MCF-7 cells"
  IC50: "> 100 µM"
- molecule: "O=C1NC(=O)C(=Cc2cn(-c3cc(Cl)ccc3Cl)nn2)C(=O)N1 [Compound 3h]"
  targetOrTestSystem: "MCF-7 cells"
  IC50: "75.9 µM"

Param readout = IC50; param system = MCF-7 cells; param query = O=C1NC(=O)C(=Cc2cn(-c3ccc(Cl)c(Cl)c3)nn2)C(=O)N1 [Compound 3i] ; response: value
> 100 µM

Same question, O=C1NC(=O)C(=Cc2cn(-c3ccc(Cl)cc3)nn2)C(=O)N1 [Compound 3g] this time
> 100 µM

Same question, COc1cccc(-n2cc(C=C3C(=O)NC(=O)NC3=O)nn2)c1 [Compound 3n] this time
> 100 µM

Same question, O=C1NC(=O)C(=Cc2cn(-c3cccc(Br)c3)nn2)C(=O)N1 [Compound 3k] this time
> 100 µM

Same question, Cc1cccc(-n2cc(C=C3C(=O)NC(=O)NC3=O)nn2)c1 [Compound 3q] this time
29.8 µM

Same question, O=C1NC(=O)C(=Cc2cn(-c3cccc(Cl)c3)nn2)C(=O)N1 [Compound 3f] this time
29.1 µM

Same question, O=C1NC(=O)C(=Cc2cn(-c3ccc(C(F)(F)F)cc3)nn2)C(=O)N1 [Compound 3s] this time
8.98 µM

Same question, Cc1nn(-c2cccc(Cl)c2)c(C)c1C=C1C(=O)NC(=O)NC1=O [Compound 4c] this time
> 100 µM

Same question, O=C1NC(=O)C(=Cc2cn(-c3ccccc3F)nn2)C(=O)N1 [Compound 3b] this time
> 100 µM

* * *

# Tested on: MCF-7 cells
# protocolText: MTT antiproliferative assay, MCF-7
# Assay type: cell-based, human
# assayConditions: Homo sapiens, MCF7, 48 h, read-out: Growth Inhibition at 100 μM (%) MCF-7
measurementKind: inhibition at 100 µM (%)
# unit: % | format: bare number

The following compounds have reported results that may help.
- structureString: "O=C1NC(=O)C(=Cc2cn(-c3ccc(Cl)c(Cl)c3)nn2)C(=O)N1"
  reportedResult: 14.2
- structureString: "COc1cccc(-n2cc(C=C3C(=O)NC(=O)NC3=O)nn2)c1"
  reportedResult: 23.3
- structureString: "O=C1NC(=O)C(=Cc2cn(-c3ccccc3)nn2)C(=O)N1"
  reportedResult: 30.9

Turning now to a further compound:
Please give the measured inhibition at 100 µM for this compound: O=C1NC(=O)C(=Cc2cn(-c3ccccc3Cl)nn2)C(=O)N1
19.8

* * *

# Tested on: MCF-7 cells
# protocolText: MTT antiproliferative assay, MCF-7
# Assay type: cell-based, human
# assayConditions: Homo sapiens, MCF7, 48 h, read-out: Growth Inhibition at 100 μM (%) MCF-7
Tag: 1 if measured inhibition at 100 µM is not below 30%, 0 if it is.

The examples below pair each entry with its known result.
- structureString: "O=C1NC(=O)C(=Cc2cn(-c3ccc(Br)cc3)nn2)C(=O)N1"
  targetOrTestSystem: "MCF-7 cells"
  qualitativeLabel: 0
- structureString: "COc1ccc(-n2cc(C=C3C(=O)NC(=O)NC3=O)nn2)cc1"
  targetOrTestSystem: "MCF-7 cells"
  qualitativeLabel: 0
- structureString: "Cc1nn(-c2ccccc2)c(C)c1C=C1C(=O)NC(=O)NC1=O"
  targetOrTestSystem: "MCF-7 cells"
  qualitativeLabel: 0
- structureString: "O=C1NC(=O)C(=Cc2cn(-c3ccc(C(F)(F)F)cc3)nn2)C(=O)N1"
  targetOrTestSystem: "MCF-7 cells"
  qualitativeLabel: 1
- structureString: "O=C1NC(=O)C(=Cc2cn(-c3ccccc3Br)nn2)C(=O)N1"
  targetOrTestSystem: "MCF-7 cells"
  qualitativeLabel: 1

Now look at this one.
Decide: inhibition at 100 µM of Cc1nn(-c2cccc(Cl)c2)c(C)c1C=C1C(=O)NC(=O)NC1=O >= 30%?
0

* * *

# System: MCF-7 cells
# protocolText: MTT antiproliferative assay, MCF-7
# Format: cell-based, human
# assayConditions: Homo sapiens, MCF7, 48 h, read-out: Growth Inhibition at 100 μM (%) MCF-7
Tag: YES if measured inhibition at 100 µM is not below 30%, NO if it is.

- compound: "O=C1NC(=O)C(=Cc2cn(-c3ccc(Cl)cc3)nn2)C(=O)N1"
  targetOrTestSystem: "MCF-7 cells"
  qualitativeLabel: "NO"
- compound: "O=C1NC(=O)C(=Cc2cn(-c3cccc(F)c3)nn2)C(=O)N1"
  targetOrTestSystem: "MCF-7 cells"
  qualitativeLabel: "YES"
- compound: "COc1ccccc1-n1cc(C=C2C(=O)NC(=O)NC2=O)nn1"
  targetOrTestSystem: "MCF-7 cells"
  qualitativeLabel: "NO"
- compound: "O=C1NC(=O)C(=Cc2cn(-c3cc(Cl)ccc3Cl)nn2)C(=O)N1"
  targetOrTestSystem: "MCF-7 cells"
  qualitativeLabel: "YES"
- compound: "O=C1NC(=O)C(=Cc2cn(-c3cccc(Cl)c3)nn2)C(=O)N1"
  targetOrTestSystem: "MCF-7 cells"
  qualitativeLabel: "YES"
- compound: "O=C1NC(=O)C(=Cc2cn(Cc3ccccc3)c3ccccc23)C(=O)N1 [A, reference compound]"
  targetOrTestSystem: "MCF-7 cells"
  qualitativeLabel: "NO"
- compound: "Cc1cccc(-n2cc(C=C3C(=O)NC(=O)NC3=O)nn2)c1"
  targetOrTestSystem: "MCF-7 cells"
  qualitativeLabel: "YES"
- compound: "O=C1NC(=O)C(=Cc2cn(-c3ccccc3F)nn2)C(=O)N1"
  targetOrTestSystem: "MCF-7 cells"
  qualitativeLabel: "NO"

Now look at this one.
Decide: inhibition at 100 µM of Cc1nn(-c2cccc(F)c2)c(C)c1C=C1C(=O)NC(=O)NC1=O >= 30%?
NO

* * *

Recorded pIC50 values for a group of compounds are listed next.
# System: L02 cells
# protocolText: Antiproliferative activity against normal cell line L02
# Type: cell-based
# assayConditions: Homo sapiens, L02, read-out: L02 IC50
In textbook form, pIC50 equals minus log to base ten of the concentration in mol/L.

The following compounds have reported results that may help.
- structureString: "O=C1NC(=O)C(=Cc2cn(-c3cc(Cl)ccc3Cl)nn2)C(=O)N1"
  targetOrTestSystem: "L02 cells"
  pIC50: 4.10
- structureString: "O=C1NC(=O)C(=Cc2cn(-c3cccc(Br)c3)nn2)C(=O)N1"
  targetOrTestSystem: "L02 cells"
  pIC50: 4.18
- structureString: "O=C1NC(=O)C(=Cc2cn(-c3ccc(Cl)cc3)nn2)C(=O)N1"
  targetOrTestSystem: "L02 cells"
  pIC50: 4.10
- structureString: "O=C1NC(=O)C(=Cc2cn(-c3cccc(F)c3)nn2)C(=O)N1"
  targetOrTestSystem: "L02 cells"
  pIC50: 4.08
- structureString: "O=C1NC(=O)C(=Cc2cn(-c3ccc(C(F)(F)F)cc3)nn2)C(=O)N1"
  targetOrTestSystem: "L02 cells"
  pIC50: 4.08

Please give the measured pIC50 for this compound: O=C1NC(=O)C(=Cc2cn(-c3cccc(Cl)c3)nn2)C(=O)N1
4.03

* * *

# Tested on: HCT-116 cells
# protocolText: MTT antiproliferative assay, HCT-116
# Format: cell-based, human
# assayConditions: Homo sapiens, HCT-116; 48 h, MTT; read-out: IC50 HCT-116
# Procedure: The antiproliferative activity of the target compounds against the panel of three different human cancer cell lines, liver (BEL-7402), colorectal (HCT-116), and breast (MCF-7) cell lines was evaluated using a standard MTT-based colorimetric assay. […]
measurementKind: IC50 (µM)
# unit: µM | format: bare number

Please give the measured IC50 for this compound: O=c1[nH]cc(F)c(=O)[nH]1 [Compound 5-FU, 5-fluorouracil, reference compound]
24.8
